Origin of values: ChEMBL document CHEMBL1152905

assay-details: Lipophilicity, log D at pH 7.4
Format: physicochemical
condition-summary: buffer
attribute-measured: logD

* CN(CCCN1CCC2(CC1)OCc1ccccc12)C(=O)C(c1ccc(F)c(F)c1)N1CCCC1=O (stereo unspecified) | 2.2

###

test-system: Melanin-concentrating hormone receptor 1 (Mus musculus, UniProt Q8JZL2)
Sequence (Q8JZL2 whole entry): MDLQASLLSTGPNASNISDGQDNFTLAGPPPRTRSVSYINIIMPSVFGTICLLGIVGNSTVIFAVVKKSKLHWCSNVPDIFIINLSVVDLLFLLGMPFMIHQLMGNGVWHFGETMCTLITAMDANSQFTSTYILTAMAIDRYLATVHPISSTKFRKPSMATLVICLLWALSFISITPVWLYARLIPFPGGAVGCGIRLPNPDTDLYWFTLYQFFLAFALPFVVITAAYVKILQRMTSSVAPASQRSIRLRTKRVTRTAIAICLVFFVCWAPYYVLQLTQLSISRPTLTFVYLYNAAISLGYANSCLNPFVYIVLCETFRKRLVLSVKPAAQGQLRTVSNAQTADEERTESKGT
pKi: −log10 of the molar value.
attribute-measured: pKi

- CCN(CCCN1CCC2(CC1)OCc1ccc(F)cc12)C(=O)C(c1ccc(F)c(F)c1)N1CCN([35S](C)(=O)=O)CC1=O (stereo unspecified): 9.30

###

test-system: Melanin-concentrating hormone receptor 1 (Homo sapiens)
Sequence (Q99705 whole entry): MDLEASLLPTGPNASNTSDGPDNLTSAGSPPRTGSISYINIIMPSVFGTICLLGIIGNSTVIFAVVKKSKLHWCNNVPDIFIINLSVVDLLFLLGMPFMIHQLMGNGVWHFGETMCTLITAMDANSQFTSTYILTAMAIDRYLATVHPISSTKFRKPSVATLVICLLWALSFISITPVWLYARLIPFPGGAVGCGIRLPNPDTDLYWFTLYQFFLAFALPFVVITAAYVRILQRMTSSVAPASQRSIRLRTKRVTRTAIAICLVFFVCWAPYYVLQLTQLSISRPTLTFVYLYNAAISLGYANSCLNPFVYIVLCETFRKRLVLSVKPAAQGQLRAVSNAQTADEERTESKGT
assay-details: Displacement of[125I]MCH from human MCH1R expressed in CHO cells
pIC50: −log10 of the molar value.
attribute-measured: pIC50

* CCN(CCCN1CCC2(CC1)OCc1ccc(F)cc12)C(=O)C(c1ccc(F)c(F)c1)N1CCNCC1=O (stereo not given) | 9.06
* CCN(CCCN1CCC2(CC1)OCc1ccc(F)cc12)C(=O)C(c1ccc(F)c(F)c1)N1CCN(C(=O)OC(C)(C)C)CC1=O (stereo in doubt; 5b) | 6.84
* CCN(CCCN1CCC2(CC1)OCc1ccc(F)cc12)C(=O)C(c1ccc(F)c(F)c1)N1CCN(C(=O)OC(C)(C)C)CC1=O (stereo in doubt; 5a) | 9.62
* CN(CCCN1CCC2(CC1)OCc1ccccc12)C(=O)C(c1ccc(F)c(F)c1)N1CCCC1=O (stereo not given) | 8.57
* CCN(CCCN1CCC2(CC1)OCc1ccc(F)cc12)C(=O)C(c1ccc(F)c(F)c1)N1CCCC1=O (stereo not given) | 9.15
